# assay system: human DA transporters [(h)DAT] (Homo sapiens, UniProt Q01959)
# Construct: expressed in transfected cells; host or cells: HEK-293
# Sequence (Q01959 whole entry): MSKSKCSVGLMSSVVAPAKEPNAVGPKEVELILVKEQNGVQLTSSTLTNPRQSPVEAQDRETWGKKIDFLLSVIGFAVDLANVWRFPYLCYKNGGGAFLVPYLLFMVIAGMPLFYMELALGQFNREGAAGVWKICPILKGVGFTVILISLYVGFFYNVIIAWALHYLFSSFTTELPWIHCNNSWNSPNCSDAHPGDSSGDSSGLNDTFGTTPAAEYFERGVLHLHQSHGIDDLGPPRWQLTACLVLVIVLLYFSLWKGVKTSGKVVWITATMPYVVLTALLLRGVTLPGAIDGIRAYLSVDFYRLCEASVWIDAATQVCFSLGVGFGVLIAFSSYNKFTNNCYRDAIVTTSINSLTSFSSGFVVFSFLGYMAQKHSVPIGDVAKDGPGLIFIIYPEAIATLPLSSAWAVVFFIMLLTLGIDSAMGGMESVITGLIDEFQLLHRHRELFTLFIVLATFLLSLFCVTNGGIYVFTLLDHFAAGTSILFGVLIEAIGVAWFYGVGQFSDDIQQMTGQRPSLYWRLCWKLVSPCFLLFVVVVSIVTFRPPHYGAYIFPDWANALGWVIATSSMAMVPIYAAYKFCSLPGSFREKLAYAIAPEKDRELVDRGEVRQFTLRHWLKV
# assay comment: Inhibition of [3H]dopamine uptake into HEK293 cells stably expressing hDAT
# Format: cell-based
# IC50 listing for each entry below
attribute measured: IC50

INSERT INTO measurements (compound, result) VALUES
  ('CC1NC(C)(C)COC1(O)c1ccc(Cl)c(Cl)c1 (racemic) [Compound 4n]', '0.07 µM'),
  ('CC1NC(C)(C)COC1(O)c1ccccn1 (racemic) [Compound 6]', '> 10 µM'),
  ('C[C@@H]1NC(C)(C)CO[C@@]1(O)c1ccc(-c2ccccc2)cc1 [Compound 4l]', '> 10 µM');

---

# IC50 listing for each entry below
# assay system: α4β2-nAChR (Homo sapiens, UniProt P17787+P43681)
# Construct: expressed in transfected cells; host or cells: SH-EP1 epithelial cells (SH-EP1-hα4β2)
# Sequence (P43681 29-627 limits assumed): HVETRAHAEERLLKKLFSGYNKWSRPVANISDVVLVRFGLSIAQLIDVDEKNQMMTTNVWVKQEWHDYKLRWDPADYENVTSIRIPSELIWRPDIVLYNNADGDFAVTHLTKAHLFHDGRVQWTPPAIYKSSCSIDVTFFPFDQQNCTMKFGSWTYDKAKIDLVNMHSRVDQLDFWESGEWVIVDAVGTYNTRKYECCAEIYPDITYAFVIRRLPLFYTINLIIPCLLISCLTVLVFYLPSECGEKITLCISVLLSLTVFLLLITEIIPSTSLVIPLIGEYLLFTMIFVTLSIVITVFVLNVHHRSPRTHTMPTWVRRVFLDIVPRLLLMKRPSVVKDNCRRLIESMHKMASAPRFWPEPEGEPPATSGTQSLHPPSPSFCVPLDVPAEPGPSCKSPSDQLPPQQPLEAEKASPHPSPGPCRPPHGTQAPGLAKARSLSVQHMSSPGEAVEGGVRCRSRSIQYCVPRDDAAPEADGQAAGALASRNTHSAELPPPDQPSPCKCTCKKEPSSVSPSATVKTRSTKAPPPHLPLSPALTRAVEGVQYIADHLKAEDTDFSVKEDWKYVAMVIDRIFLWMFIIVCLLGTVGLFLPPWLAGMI
# Sequence (P17787 26-502): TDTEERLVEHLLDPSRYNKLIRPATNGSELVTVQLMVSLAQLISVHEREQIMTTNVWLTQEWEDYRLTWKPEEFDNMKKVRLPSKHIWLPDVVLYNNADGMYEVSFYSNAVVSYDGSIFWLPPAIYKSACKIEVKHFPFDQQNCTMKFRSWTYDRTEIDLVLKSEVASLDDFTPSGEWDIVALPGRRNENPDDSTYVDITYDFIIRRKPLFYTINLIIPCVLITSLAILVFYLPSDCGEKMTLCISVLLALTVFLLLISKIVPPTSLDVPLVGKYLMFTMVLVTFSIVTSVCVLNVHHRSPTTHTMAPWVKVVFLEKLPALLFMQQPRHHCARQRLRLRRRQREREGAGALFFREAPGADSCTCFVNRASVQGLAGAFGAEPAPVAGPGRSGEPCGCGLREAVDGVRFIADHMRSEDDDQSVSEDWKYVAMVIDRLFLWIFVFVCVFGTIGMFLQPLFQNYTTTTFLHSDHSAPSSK
# assay comment: 86Rb+ efflux nAChR functional assay, SH-EP1-hα4β2 cells
# Assay type: cell-based
attribute measured: IC50

INSERT INTO results (molecule, attribute_measured, result) VALUES
  ('COc1cccc([C@]2(O)OCC(C)(C)N[C@H]2C)c1 [Compound 4f]', 'IC50', '< 10 µM'),
  ('C[C@@H]1NC(C)(C)CO[C@@]1(O)c1ccc(-c2ccccc2)cc1 [Compound 4l]', 'IC50', '< 10 µM'),
  ('C[C@@H]1NC(C)(C)CO[C@@]1(O)c1ccccc1 [Compound 4b]', 'IC50', '< 10 µM'),
  ('C[C@@H]1NC(C)(C)CO[C@@]1(O)c1cccc([N+](=O)[O-])c1 [Compound 4g]', 'IC50', '< 10 µM'),
  ('C[C@@H]1NC(C)(C)CO[C@@]1(O)c1cc(F)cc(F)c1 [Compound 4o]', 'IC50', '< 10 µM');

---

# assay system: human DA transporters [(h)DAT] (Homo sapiens)
# Construct: expressed in transfected cells; host or cells: HEK-293
# assay comment: Inhibition of [3H]dopamine uptake into HEK293 cells stably expressing hDAT
# Type: cell-based
# run parameters: HEK293-hDAT; mean ± standard error of three independent experiments; read-out: monoamine uptake inhibition IC50 [3H]DA
attribute measured: IC50 (nM)

INSERT INTO results (molecule, censoring_operator, number) VALUES
  ('C[C@@H]1NC(C)(C)CO[C@@]1(O)c1ccc(F)cc1', '=', 4200),
  ('Cc1ccc([C@]2(O)OCC(C)(C)N[C@H]2C)cc1', '=', 832),
  ('COc1cccc([C@]2(O)OCC(C)(C)N[C@H]2C)c1', '=', 16000),
  ('C[C@@H]1NC(C)(C)CO[C@@]1(O)c1ccc(F)c(F)c1', '=', 2140),
  ('CC[C@@H]1NC(C)(C)CO[C@@]1(O)c1cccc(Cl)c1', '=', 204),
  ('C[C@@H]1NC(C)(C)CO[C@@]1(O)c1cc(F)cc(F)c1', '=', 1020),
  ('CC1NC(C)(C)COC1(O)c1cccnc1 (racemic)', '>', 10000),
  ('C[C@@H]1N(C)C(C)(C)CO[C@@]1(O)c1ccc(Cl)cc1', '=', 2870),
  ('C[C@@H]1NC(C)(C)CO[C@@]1(O)c1ccccc1', '=', 1060);

---

# assay system: α4β4-nAChR (Homo sapiens, UniProt P30926+P43681)
# Sequence (P43681 29-627 limits assumed): as the sequence (P43681 29-627 limits assumed) above
# Sequence (P30926 22-498): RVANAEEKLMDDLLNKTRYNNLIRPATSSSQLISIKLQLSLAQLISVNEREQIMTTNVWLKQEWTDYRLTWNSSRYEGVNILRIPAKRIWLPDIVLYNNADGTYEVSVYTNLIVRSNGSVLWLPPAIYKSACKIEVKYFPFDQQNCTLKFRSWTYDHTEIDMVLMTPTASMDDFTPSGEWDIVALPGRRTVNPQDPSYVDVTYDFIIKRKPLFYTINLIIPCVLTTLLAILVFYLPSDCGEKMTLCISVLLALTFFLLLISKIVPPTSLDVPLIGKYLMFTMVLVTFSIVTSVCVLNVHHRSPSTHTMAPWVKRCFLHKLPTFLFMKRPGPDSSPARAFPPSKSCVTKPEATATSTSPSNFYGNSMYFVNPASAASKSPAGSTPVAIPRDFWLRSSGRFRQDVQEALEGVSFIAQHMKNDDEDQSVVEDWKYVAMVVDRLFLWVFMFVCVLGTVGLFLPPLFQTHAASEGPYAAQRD
# assay comment: 86Rb+ efflux nAChR functional assay, SH-EP1-hα4β4 cells
# run parameters: EC80-EC90 carbamylcholine, parentheses = S.E.M. as multiplication/division factor, read-out: nAChR inhibition IC50 α4β4
pIC50: −log10 of the molar value.
attribute measured: pIC50

INSERT INTO results (compound, result) VALUES
  ('C[C@@H]1NC(C)(C)CO[C@@]1(O)c1ccc(F)c(F)c1', '< 4.00'),
  ('CC1NC(C)(C)COC1(O)c1ccccn1 (racemic)', '< 4.00'),
  ('COc1cccc([C@]2(O)OCC(C)(C)N[C@H]2C)c1', '< 4.00');

---

# IC50 listing for each entry below
# assay system: α4β2-nAChR (Homo sapiens, UniProt P17787+P43681)
# Construct: expressed in transfected cells; host or cells: SH-EP1 epithelial cells (SH-EP1-hα4β2)
# assay comment: 86Rb+ efflux nAChR functional assay, SH-EP1-hα4β2 cells
# Assay type: cell-based
# run parameters: EC80-EC90 carbamylcholine; SH-EP1-hα4β2; parentheses = S.E.M. as multiplication/division factor; read-out: nAChR inhibition IC50 α4β2
# Method: Cell Lines and Culture: Human embryonic kidney (HEK-293) cells stably expressing human DAT, NET or SERT were maintained as previously described in Eshleman, A. J.; Carmolli, M.; Cumbay, M.; Martens, C. […] After at least 4 h and typically overnight, ^86Rb^+ efflux was measured using the “flip-plate” technique. […] Similarly, the sum of ^86Rb^+ in cell plates and efflux/drug plates also determined the efficiency of ^86Rb^+ loading (the percentage of applied ^86Rb^+ actually loaded into cells). […]
attribute measured: IC50 (µM)

INSERT INTO measurements (compound, attribute_measured, censoring_operator, number) VALUES
  ('CC1NC(C)(C)COC1(O)c1ccccn1 (racemic)', 'IC50', '>', 100),
  ('C[C@@H]1NC(C)(C)CO[C@@]1(O)c1ccc2ccccc2c1', 'IC50', '=', 6.5),
  ('CC1NC(C)(C)COC1(O)c1cccnc1 (racemic)', 'IC50', '>', 100),
  ('C[C@@H]1NC(C)(C)CO[C@@]1(O)c1cccc(Br)c1', 'IC50', '=', 0.55),
  ('C[C@@H]1N(C)C(C)(C)CO[C@@]1(O)c1ccc(Cl)cc1', 'IC50', '=', 42),
  ('COc1cccc([C@]2(O)OCC(C)(C)N[C@H]2C)c1', 'IC50', '=', 10),
  ('C[C@@H]1NC(C)(C)CO[C@@]1(O)c1ccc(F)cc1', 'IC50', '=', 12);

---

# assay system: α3β4*-nAChR (Homo sapiens, UniProt P30926+P32297)
# Construct: other: EC80-EC90 carbamylcholine; SH-SY5Y; parentheses = S.E.M. as multiplication/division
# Sequence (P32297 32-505): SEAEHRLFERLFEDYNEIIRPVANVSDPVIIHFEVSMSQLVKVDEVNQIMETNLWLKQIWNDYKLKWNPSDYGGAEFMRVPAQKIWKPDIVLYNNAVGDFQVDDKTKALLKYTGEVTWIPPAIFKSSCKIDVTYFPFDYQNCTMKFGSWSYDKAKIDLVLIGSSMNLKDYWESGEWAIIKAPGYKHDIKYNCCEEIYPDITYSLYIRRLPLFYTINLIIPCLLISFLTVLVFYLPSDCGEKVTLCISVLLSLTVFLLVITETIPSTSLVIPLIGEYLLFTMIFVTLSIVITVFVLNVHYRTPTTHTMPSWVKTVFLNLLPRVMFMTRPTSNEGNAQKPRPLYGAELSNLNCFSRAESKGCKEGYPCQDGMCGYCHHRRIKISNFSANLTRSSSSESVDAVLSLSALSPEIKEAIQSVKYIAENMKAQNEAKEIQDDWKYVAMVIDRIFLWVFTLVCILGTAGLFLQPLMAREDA
# Sequence (P30926 22-498): as the sequence (P30926 22-498) above
# assay comment: 86Rb+ efflux nAChR functional assay, SH-SY5Y cells
# run parameters: EC80-EC90 carbamylcholine; SH-SY5Y; parentheses = S.E.M. as multiplication/division factor; read-out: nAChR inhibition IC50 α3β4±
pIC50: −log10 of the molar value.
attribute measured: pIC50

INSERT INTO results (line_notation, assay_system, attribute_measured, number) VALUES
  ('CC[C@@H]1NC(C)(C)CO[C@@]1(O)c1cccc(Cl)c1', 'α3β4*-nAChR (Homo sapiens, UniProt P30926+P32297)', 'pIC50', 5.37),
  ('C[C@@H]1NC(C)(C)CO[C@@]1(O)c1cccc2ccccc12', 'α3β4*-nAChR (Homo sapiens, UniProt P30926+P32297)', 'pIC50', 5.28),
  ('C[C@@H]1N(C)C(C)(C)CO[C@@]1(O)c1ccc(Cl)cc1', 'α3β4*-nAChR (Homo sapiens, UniProt P30926+P32297)', 'pIC50', 5.34),
  ('C[C@@H]1NC(C)(C)CO[C@@]1(O)c1cccc([N+](=O)[O-])c1', 'α3β4*-nAChR (Homo sapiens, UniProt P30926+P32297)', 'pIC50', 4.85),
  ('Cc1ccc([C@]2(O)OCC(C)(C)N[C@H]2C)cc1', 'α3β4*-nAChR (Homo sapiens, UniProt P30926+P32297)', 'pIC50', 5.07),
  ('C[C@@H]1NC(C)(C)CO[C@@]1(O)c1ccccc1', 'α3β4*-nAChR (Homo sapiens, UniProt P30926+P32297)', 'pIC50', 5.05),
  ('C[C@@H]1NC(C)(C)CO[C@@]1(O)c1ccc(-c2ccccc2)cc1', 'α3β4*-nAChR (Homo sapiens, UniProt P30926+P32297)', 'pIC50', 5.89),
  ('Cc1cccc([C@]2(O)OCC(C)(C)N[C@H]2C)c1', 'α3β4*-nAChR (Homo sapiens, UniProt P30926+P32297)', 'pIC50', 5.07),
  ('C[C@@H]1NC(C)(C)CO[C@@]1(O)c1ccc(F)c(F)c1', 'α3β4*-nAChR (Homo sapiens, UniProt P30926+P32297)', 'pIC50', 4.92),
  ('C[C@@H]1NC(C)(C)CO[C@@]1(O)c1ccc2ccccc2c1', 'α3β4*-nAChR (Homo sapiens, UniProt P30926+P32297)', 'pIC50', 5.70),
  ('C[C@@H]1NC(C)(C)CO[C@@]1(O)c1cccc(F)c1', 'α3β4*-nAChR (Homo sapiens, UniProt P30926+P32297)', 'pIC50', 4.82),
  ('COc1cccc([C@]2(O)OCC(C)(C)N[C@H]2C)c1', 'α3β4*-nAChR (Homo sapiens, UniProt P30926+P32297)', 'pIC50', 4.96);
